Recorded log10(IC50) values for a group of molecules are listed next.
Biological target: aminopeptidase purifiée du rein de lapin (Oryctolagus cuniculus)
Construct: purifiée du rein de lapin; from tissue; host or cells: rabbit kidney
Sequence (P15541 1-966): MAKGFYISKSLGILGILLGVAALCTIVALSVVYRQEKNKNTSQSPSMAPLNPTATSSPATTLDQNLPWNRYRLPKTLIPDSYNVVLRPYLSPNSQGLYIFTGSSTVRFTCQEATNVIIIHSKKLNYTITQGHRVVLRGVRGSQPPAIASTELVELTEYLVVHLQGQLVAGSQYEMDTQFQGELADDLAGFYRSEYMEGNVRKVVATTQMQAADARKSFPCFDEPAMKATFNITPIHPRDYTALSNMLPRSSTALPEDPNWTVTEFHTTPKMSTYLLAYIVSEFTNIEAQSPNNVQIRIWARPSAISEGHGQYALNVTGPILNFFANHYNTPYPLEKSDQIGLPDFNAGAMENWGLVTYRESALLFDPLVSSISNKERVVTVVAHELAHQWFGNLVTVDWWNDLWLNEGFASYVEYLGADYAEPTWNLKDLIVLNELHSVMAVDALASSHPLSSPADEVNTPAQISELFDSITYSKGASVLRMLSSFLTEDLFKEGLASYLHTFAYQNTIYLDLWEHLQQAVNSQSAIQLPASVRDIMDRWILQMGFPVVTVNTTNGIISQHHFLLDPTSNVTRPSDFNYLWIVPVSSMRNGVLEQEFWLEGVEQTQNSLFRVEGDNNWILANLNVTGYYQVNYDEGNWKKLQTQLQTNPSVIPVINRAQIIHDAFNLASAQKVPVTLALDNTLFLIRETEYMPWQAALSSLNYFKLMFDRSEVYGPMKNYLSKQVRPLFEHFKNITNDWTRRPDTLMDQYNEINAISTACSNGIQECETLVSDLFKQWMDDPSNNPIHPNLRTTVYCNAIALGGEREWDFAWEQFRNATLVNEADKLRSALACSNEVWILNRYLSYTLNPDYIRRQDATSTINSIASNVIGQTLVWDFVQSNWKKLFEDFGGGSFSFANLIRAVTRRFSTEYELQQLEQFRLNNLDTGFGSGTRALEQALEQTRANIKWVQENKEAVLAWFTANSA
Assay: Inhibitory power on aminopeptidase, substrate [3H]Leu5-enkephalin
Format: biochemical
Details: purified rabbit kidney enzyme, [3H]Leu5-enkephalin substrate; read-out: Aminopeptidase(M), concentrations inhibitrices 50 % (converted)
Lab note - IC50 converted to log10 from values in M.

MOLECULE | log10(IC50)
CC(CNC(=O)C(CC(=O)NO)Cc1ccccc1)C(=O)O (stereo not shown) | -6.40
O=C(O)C[C@H](Cc1ccccc1)NC(=O)[C@@H](CC(=O)NO)Cc1ccccc1 | -7.70
CC(CC(=O)NC(CC(=O)NOCc1ccccc1)Cc1ccccc1)C(=O)O (stereo not shown) | -5.40
O=C(O)CCC(=O)N[C@@H](CC(=O)NO)Cc1ccccc1 | -5.00
O=C(O)CCNC(=O)C(CC(=O)NO)Cc1ccccc1 (racemic) | -6.30
CC(CC(=O)O)NC(=O)C(CC(=O)NO)Cc1ccccc1 (stereo not shown) | -6.52

Then there is this molecule:
QUERY: Entry CC(CC(=O)O)C(=O)N[C@@H](CC(=O)NO)Cc1ccccc1 (stereo partly shown) has what log10(IC50)?
RESULT: -5.00

Where do these numbers come from? They come from patent EP0262053A2.
